Biological target: enzymatically active free PSA (Homo sapiens, UniProt P07288)
Construct: required for 50% cleavage of the noted oligopeptides with enzymatically active free PSA
Sequence (P07288 25-261): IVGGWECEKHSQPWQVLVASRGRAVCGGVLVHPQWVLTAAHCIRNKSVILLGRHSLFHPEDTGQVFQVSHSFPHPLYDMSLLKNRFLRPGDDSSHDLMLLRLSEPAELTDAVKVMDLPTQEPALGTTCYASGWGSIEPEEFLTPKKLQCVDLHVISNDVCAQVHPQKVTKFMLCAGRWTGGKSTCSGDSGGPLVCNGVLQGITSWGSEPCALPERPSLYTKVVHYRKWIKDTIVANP
Assay: Recognition (cleavage) of oligopeptide-doxorubicin conjugates by free PSA, HPLC
Format: biochemical
Conditions: DOX conjugate; PSA digestion buffer pH7.4, 140 mM NaCl; molar ratio to PSA 100 to 1
Non-standard residues stand in square brackets, D forms with d. Residues, ends and D or L forms follow the SMILES beside them. *: point of attachment. Doxorubicin(3'-N) = COc1cccc2c1C(=O)c1c(O)c3c(c(O)c1C2=O)C[C@@](O)(C(=O)CO)C[C@@H]3O[C@H]1C[C@H](N*)[C@H](O)[C@H](C)O1; Decanoyl(3,6,9-trioxa) = COCCOCCOCC(=O)*; Glyceroyl(2S) = O=C([C@@H](O)CO)*; hArg = N=C(N)NCCCC[C@H](N)C(=O)O; Chg = N[C@H](C(=O)O)C1CCCCC1
Reported Metric: Time to 50% Substrate Cleavage by York PSA (min)
Report the value in min with no unit label.

Sample answers from the record:
>>> reported_result("COCCOCCOCC(=O)N[C@@H](CO)C(=O)N[C@@H](CCCCNC(=N)N)C(=O)N[C@@H](Cc1ccc(O)cc1)C(=O)N[C@@H](CCC(N)=O)C(=O)N[C@@H](CO)C(=O)N[C@@H](CC(C)C)C(=O)N[C@H]1C[C@H](O[C@H]2C[C@](O)(C(=O)CO)Cc3c(O)c4c(c(O)c32)C(=O)c2c(OC)cccc2C4=O)O[C@@H](C)[C@H]1O [PEG(2)-SHomoRYQ-SL-DOX(3′), PEG(2)-SerhArgTyrGln-SerLeu-DOX(3′)] ({Decanoyl(3,6,9-trioxa)}-S[hArg]YQSL-{Doxorubicin(3'-N)})")
35
>>> reported_result("COCCOCCOCC(=O)N[C@@H](CCCCNC(=N)N)C(=O)N[C@@H](CO)C(=O)N[C@@H](CO)C(=O)N[C@H](C(=O)N[C@@H](CCC(N)=O)C(=O)N[C@@H](CO)C(=O)N[C@@H](CC(C)C)C(=O)N[C@H]1C[C@H](O[C@H]2C[C@](O)(C(=O)CO)Cc3c(O)c4c(c(O)c32)C(=O)c2c(OC)cccc2C4=O)O[C@@H](C)[C@H]1O)C1CCCCC1 [PEG(2)-HomoRSSChgQ-SL-DOX (3′), PEG(2)-hArgSerSerChgGln-SerLeu-DOX (3′)] ({Decanoyl(3,6,9-trioxa)}-[hArg]SS[Chg]QSL-{Doxorubicin(3'-N)})")
11

Prompt line: Sample COc1cccc2c1C(=O)c1c(O)c3c(c(O)c1C2=O)C[C@@](O)(C(=O)CO)C[C@@H]3O[C@H]1C[C@H](NC(=O)[C@@H](CC(C)C)NC(=O)[C@H](CO)NC(=O)[C@H](CCC(N)=O)NC(=O)[C@@H](NC(=O)[C@H](CO)NC(=O)[C@H](CO)NC(=O)[C@H](CO)NC(=O)[C@@H](O)CO)C2CCCCC2)[C@H](O)[C@H](C)O1 ({Glyceroyl(2S)}-SSS[Chg]QS[dL]-{Doxorubicin(3'-N)}) — what was its Time to 50% Substrate Cleavage by York PSA?
Response line: 180

Prompt line: Same for COc1cccc2c1C(=O)c1c(O)c3c(c(O)c1C2=O)C[C@@](O)(C(=O)CO)C[C@@H]3O[C@H]1C[C@H](NC(=O)[C@H](CC(C)C)NC(=O)[C@H](CO)NC(=O)[C@H](CCC(N)=O)NC(=O)[C@@H](NC(=O)[C@H](CO)NC(=O)[C@H](CO)NC(=O)[C@H](CCCCNC(=N)N)NC(=O)[C@@H](O)CO)C2CCCCC2)[C@H](O)[C@H](C)O1 ({Glyceroyl(2S)}-[hArg]SS[Chg]QSL-{Doxorubicin(3'-N)})
Response line: 12

Prompt line: Follow-up item: COCCOCCOCC(=O)N[C@@H](CO)C(=O)N[C@@H](CO)C(=O)N[C@H](C(=O)N[C@@H](CCC(N)=O)C(=O)N[C@@H](CO)C(=O)N[C@@H](CC(C)C)C(=O)N[C@H]1C[C@H](O[C@H]2C[C@](O)(C(=O)CO)Cc3c(O)c4c(c(O)c32)C(=O)c2c(OC)cccc2C4=O)O[C@@H](C)[C@H]1O)C1CCCCC1 [PEG(2)SSChgQ-SL-DOX (3′), PEG(2)SerSerChgGln-SerLeu-DOX (3′)] ({Decanoyl(3,6,9-trioxa)}-SS[Chg]QSL-{Doxorubicin(3'-N)})
Response line: 90

Recorded values, source patent US6391305B1.
